Test: Food vacuolar accumulation ratio was determined
Type: functional
# Ratio values compiled below
Note: the reply should be a number with no unit written.

Worked set:
COc1ccc2nc(NCCCN(C)CCCNc3nc4ccc(OC)cc4n4cccc34)c3cccn3c2c1; 42100
COc1ccc2nc(NCCCN3CCN(CCCNc4nc5ccc(OC)cc5n5cccc45)CC3)c3cccn3c2c1; 72500
COc1ccc2c(c1)nc(NCCCN1CCN(CCCNc3nc4cc(OC)ccc4n4cccc34)CC1)c1cccn12; 187000
c1ccc2c(c1)nc(NCCCN1CCN(CCCNc3nc4ccccc4n4cccc34)CC1)c1cccn12; 409000

Kindly consider the entry below.
Provide Ratio value for the following molecule: "Clc1ccc2nc(NCCCNCCCNc3nc4ccc(Cl)cc4n4cccc34)c3cccn3c2c1"
1600

###

# Ratio values compiled below
Test system: L6
Test: Selectivity IC50 index against Plasmodium falciparum K1 compared to L6 cells
Assay type: functional

Worked set:
COc1ccc2c(c1)nc(NCCCN(C)CCCNc1nc3cc(OC)ccc3n3cccc13)c1cccn12; 106.3
COc1ccc2nc(NCCCNCCCNc3nc4ccc(OC)cc4n4cccc34)c3cccn3c2c1; 11
COc1ccc2nc(NCCCN3CCN(CCCNc4nc5ccc(OC)cc5n5cccc45)CC3)c3cccn3c2c1; 52.7
CN(CCCNc1nc2ccccc2n2cccc12)CCCNc1nc2ccccc2n2cccc12; 22.1

State recorded Ratio with L6, entry "COc1ccc2c(c1)nc(NCCCNCCCNc1nc3cc(OC)ccc3n3cccc13)c1cccn12" , no comment.
26.6

###

# Ratio values compiled below
Test: Food vacuolar accumulation ratio was determined
Format: functional
Note: the reply should be a number with no unit written.

COc1ccc2c(c1)nc(NCCCN1CCN(CCCNc3nc4cc(OC)ccc4n4c(Cl)ccc34)CC1)c1ccc(Cl)n12; 900
COc1ccc2nc(NCCCN3CCN(CCCNc4nc5ccc(OC)nc5n5cccc45)CC3)c3cccn3c2n1; 33000
CN(CCCNc1nc2ccc(Cl)cc2n2cccc12)CCCNc1nc2ccc(Cl)cc2n2cccc12; 1800
CN(CCCNc1nc2ccccc2n2cccc12)CCCNc1nc2ccccc2n2cccc12; 226000

Provide Ratio value for the following compound: "COc1ccc2c(c1)nc(NCCCN(C)CCCNc1nc3cc(OC)ccc3n3cccc13)c1cccn12"
105000

###

Tested on: Plasmodium falciparum
Experiment: In vitro antimalarial activity against Thai strain of Plasmodium falciparum
Assay type: functional, organism-based
Please use class 1 for IC50 under 100 nM and class 0 for everything else, ties included.

These solved cases illustrate the format of a correct answer.
COc1ccc2c(c1)nc(NCCCN(C)CCCNc1nc3cc(OC)ccc3n3cccc13)c1cccn12; class 1
COc1ccc2c(c1)nc(NCCCN1CCN(CCCNc3nc4cc(OC)ccc4n4cccc34)CC1)c1cccn12; class 1
CN(CCCNc1nc2ccc(Cl)cc2n2cccc12)CCCNc1nc2ccc(Cl)cc2n2cccc12; class 0
COc1ccc2c(c1)nc(NCCCN1CCN(CCCNc3nc4cc(OC)ccc4n4c(Cl)ccc34)CC1)c1ccc(Cl)n12; class 0

Consider the compound "CN(CCCNc1nc2ccccc2n2cccc12)CCCNc1nc2ccccc2n2cccc12" . Is its IC50 strictly less than 100 nM?
class 0

Consider the compound "Clc1ccc2nc(NCCCN3CCN(CCCNc4nc5ccc(Cl)cc5n5cccc45)CC3)c3cccn3c2c1" . Is its IC50 strictly less than 100 nM?
class 0

###

# Ratio values compiled below
Test: Food vacuolar accumulation ratio was determined
Type: functional
Note: the reply should be a number with no unit written.

Worked set:
Clc1ccc2nc(NCCCN3CCN(CCCNc4nc5ccc(Cl)cc5n5cccc45)CC3)c3cccn3c2c1; 2100
c1cnc2c(c1)nc(NCCCN1CCN(CCCNc3nc4cccnc4n4cccc34)CC1)c1cccn12; 100
COc1ccc2c(c1)nc(NCCCNCCCNc1nc3cc(OC)ccc3n3cccc13)c1cccn12; 104000

Provide Ratio value for the following compound: "COc1ccc2nc(NCCCNCCCNc3nc4ccc(OC)cc4n4cccc34)c3cccn3c2c1"
41700

###

# logD values compiled below
Experiment: Lipophilicity at pH 7.4
Type: physicochemical
Details: buffer, read-out: Log D7.4
Note: the reply should be a number with no unit written.

Worked set:
Clc1ccc2nc(NCCCNCCCNc3nc4ccc(Cl)cc4n4cccc34)c3cccn3c2c1; 5.06
COc1ccc2nc(NCCCNCCCNc3nc4ccc(OC)cc4n4cccc34)c3cccn3c2c1; 2.58
COc1ccc2nc(NCCCN(C)CCCNc3nc4ccc(OC)cc4n4cccc34)c3cccn3c2c1; 3.41
c1cnc2c(c1)nc(NCCCN1CCN(CCCNc3nc4cccnc4n4cccc34)CC1)c1cccn12; 5.05

Provide logD value for the following molecule: "COc1ccc2nc(NCCCN3CCN(CCCNc4nc5ccc(OC)nc5n5cccc45)CC3)c3cccn3c2n1"
4.73

Provide logD value for the following molecule: "COc1ccc2c(c1)nc(NCCCN1CCN(CCCNc3nc4cc(OC)ccc4n4c(Cl)ccc34)CC1)c1ccc(Cl)n12"
5.74

Provide logD value for the following molecule: "c1ccc2c(c1)nc(NCCCN1CCN(CCCNc3nc4ccccc4n4cccc34)CC1)c1cccn12"
2.52

Provide logD value for the following molecule: "Clc1ccc2nc(NCCCN3CCN(CCCNc4nc5ccc(Cl)cc5n5cccc45)CC3)c3cccn3c2c1"
4.92

Provide logD value for the following molecule: "CN(CCCNc1nc2ccccc2n2cccc12)CCCNc1nc2ccccc2n2cccc12"
4.12

Provide logD value for the following molecule: "COc1ccc2c(c1)nc(NCCCN(C)CCCNc1nc3cc(OC)ccc3n3cccc13)c1cccn12"
3.55

Provide logD value for the following molecule: "COc1ccc2c(c1)nc(NCCCN1CCN(CCCNc3nc4cc(OC)ccc4n4cccc34)CC1)c1cccn12"
3.72

Provide logD value for the following molecule: "COc1ccc2c(c1)nc(NCCCNCCCNc1nc3cc(OC)ccc3n3cccc13)c1cccn12"
2.76

Provide logD value for the following molecule: "COc1ccc2nc(NCCCN3CCN(CCCNc4nc5ccc(OC)cc5n5cccc45)CC3)c3cccn3c2c1"
4.67

Provide logD value for the following molecule: "CN(CCCNc1nc2ccc(Cl)cc2n2cccc12)CCCNc1nc2ccc(Cl)cc2n2cccc12"
4.44

###

System: L6
Assay: Selectivity IC50 index against Plasmodium falciparum K1 compared to L6 cells
Format: functional
# Ratio values compiled below
Note: the reply should be a number with no unit written.

Worked set:
Clc1ccc2nc(NCCCNCCCNc3nc4ccc(Cl)cc4n4cccc34)c3cccn3c2c1; 6.1
Clc1ccc2nc(NCCCN3CCN(CCCNc4nc5ccc(Cl)cc5n5cccc45)CC3)c3cccn3c2c1; 8.2
CN(CCCNc1nc2ccc(Cl)cc2n2cccc12)CCCNc1nc2ccc(Cl)cc2n2cccc12; 7.1
CCN(CC)CCCC(C)Nc1nc2ccc(Cl)cc2n2cccc12 (stereo not given); 5.6
COc1ccc2nc(NCCCN(C)CCCNc3nc4ccc(OC)cc4n4cccc34)c3cccn3c2c1; 19.2

Provide Ratio value for the following compound: "c1ccc2c(c1)nc(NCCCN1CCN(CCCNc3nc4ccccc4n4cccc34)CC1)c1cccn12"
13.6

Provide Ratio value for the following compound: "COc1ccc2c(c1)nc(NCCCN1CCN(CCCNc3nc4cc(OC)ccc4n4cccc34)CC1)c1cccn12"
17.4

Provide Ratio value for the following compound: "COc1ccc2c(c1)nc(NCCCN1CCN(CCCNc3nc4cc(OC)ccc4n4c(Cl)ccc34)CC1)c1ccc(Cl)n12"
9.3

###

Test: Lipophilicity at pH 5
Assay type: physicochemical
Details: buffer, read-out: Log D5.0
Classification by logD | ranges: range 1 = under 1, range 2 = from 1 up to 3, range 3 = 3 and over

These solved cases illustrate the format of a correct answer.
COc1ccc2c(c1)nc(NCCCN1CCN(CCCNc3nc4cc(OC)ccc4n4cccc34)CC1)c1cccn12; range 2
CN(CCCNc1nc2ccccc2n2cccc12)CCCNc1nc2ccccc2n2cccc12; range 2
COc1ccc2c(c1)nc(NCCCNCCCNc1nc3cc(OC)ccc3n3cccc13)c1cccn12; range 1
COc1ccc2c(c1)nc(NCCCN(C)CCCNc1nc3cc(OC)ccc3n3cccc13)c1cccn12; range 1
c1ccc2c(c1)nc(NCCCN1CCN(CCCNc3nc4ccccc4n4cccc34)CC1)c1cccn12; range 2
Clc1ccc2nc(NCCCNCCCNc3nc4ccc(Cl)cc4n4cccc34)c3cccn3c2c1; range 3
COc1ccc2nc(NCCCN3CCN(CCCNc4nc5ccc(OC)nc5n5cccc45)CC3)c3cccn3c2n1; range 3
c1cnc2c(c1)nc(NCCCN1CCN(CCCNc3nc4cccnc4n4cccc34)CC1)c1cccn12; range 2

Bin? "COc1ccc2nc(NCCCN3CCN(CCCNc4nc5ccc(OC)cc5n5cccc45)CC3)c3cccn3c2c1"
range 2

Bin? "COc1ccc2c(c1)nc(NCCCN1CCN(CCCNc3nc4cc(OC)ccc4n4c(Cl)ccc34)CC1)c1ccc(Cl)n12"
range 3

Bin? "Clc1ccc2nc(NCCCN3CCN(CCCNc4nc5ccc(Cl)cc5n5cccc45)CC3)c3cccn3c2c1"
range 3

Bin? "CN(CCCNc1nc2ccc(Cl)cc2n2cccc12)CCCNc1nc2ccc(Cl)cc2n2cccc12"
range 3

Bin? "COc1ccc2nc(NCCCNCCCNc3nc4ccc(OC)cc4n4cccc34)c3cccn3c2c1"
range 1

Bin? "COc1ccc2nc(NCCCN(C)CCCNc3nc4ccc(OC)cc4n4cccc34)c3cccn3c2c1"
range 1
